# testDetails: Biodistribution study in LNCaP tumor-bearing mice (Th227 counted in organs)
# Format: in vivo, SCID mice
# assayContext: 96 h; 1500 kBq/kg
Provide the recorded Th-227 in kidney for the entries that follow.
Answers are plain numbers, in % ID Th-227/g organ.

Reference set (3 entries):
- compound: "O=C([O-])CN1CCN(CC(=O)[O-])CCN(CC(=O)NCc2ccc(C(=O)N[C@@H](Cc3ccc4ccccc4n3)C(=O)NCCCC[C@H](NC(=O)N[C@@H](CCC(=O)O)C(=O)O)C(=O)O)nc2)CCN(CC(=O)[O-])CC1.[227Th+4] [Example 34-B-227Th]"
  Th-227 in kidney [% ID Th-227/g organ]: 9.71
- compound: "O=C([O-])CN1CCN(CC(=O)[O-])CCN(CC(=O)NCC2CCC(C(=O)NC(Cc3ccc4ccccc4c3)C(=O)NCCCCC(NC(=O)NC(CCC(=O)O)C(=O)O)C(=O)O)CC2)CCN(CC(=O)[O-])CC1.[227Th+4] (stereo not shown) [Example 1-B-227Th]"
  Th-227 in kidney [% ID Th-227/g organ]: 1.96
- compound: "O=C([O-])CN1CCN(CC(=O)[O-])CCN(CC(=O)NCC2CCC(C(=O)NC(Cc3ccc4ccccc4c3)C(=O)NCCCCC(NC(=O)NC(CCC(=O)O)C(=O)O)C(=O)O)CC2)CCN(CC(=O)[O-])CC1.[227Th+4] [Example 1-B-D-227Th]"
  Th-227 in kidney [% ID Th-227/g organ]: 0.37

Continue with the next compound.
Note Th-227 in kidney for the compound shown: Cc1cc(C(=O)NCCN(CCCN(CCNC(=O)c2cc(C)n(CC(=O)O)c(=O)c2[O-])CCNC(=O)c2cc(C)n(CC(=O)NCC3CCC(C(=O)NC(Cc4cnc5ccccc5c4)C(=O)NCCCCC(NC(=O)NC(CCC(=O)O)C(=O)O)C(=O)O)CC3)c(=O)c2[O-])CCNC(=O)c2cc(C)n(CC(=O)NCC3CCC(C(=O)NC(Cc4cnc5ccccc5c4)C(=O)NCCCCC(NC(=O)NC(CCC(=O)O)C(=O)O)C(=O)O)CC3)c(=O)c2[O-])c([O-])c(=O)n1CC(=O)O.[227Th+4] (stereo not shown) [Example 22-C dimer-227Th]
2.18

----------
Provide the recorded Membrane bound in LNCaP fmol/10^6 cells 2 h for the entries that follow.
# systemUnderTest: PSMA-expressing LNCaP cells (Homo sapiens)
# Construct: PSMA-expressing LNCaP cells; endogenous in cells; host or cells: LNCaP
# testDetails: Internalization assay (membrane bound and internalized Th-227)
# Type: cell-based
# assayContext: 10 nM radiolabeled compound, Th-227 at 375 kBq/nmol; 2 h incubation; triplicates
Answers are plain numbers, in fmol/10^6 cells.

Reference set (2 entries):
- molecule: "Cn1ccc2c(c1=O)[O][Th]13[O]c4c(ccn(C)c4=O)C(=O)NCCN(CCNC2=O)CC(Cc2ccc(NC(=O)CCC(=O)N[C@H](CCCNC(=N)N)C(=O)N[C@H](CCCNC(=N)N)C(=O)NC[C@H]4CC[C@H](C(=O)N[C@@H](Cc5ccc6ccccc6c5)C(=O)NCCCC[C@H](NC(=O)N[C@@H](CCC(=O)O)C(=O)O)C(=O)O)CC4)cc2)CN(CCNC(=O)c2ccn(C)c(=O)c2[O]1)CCNC(=O)c1ccn(C)c(=O)c1[O]3 (stereo partly drawn) [Example 46-E-227Th]"
  measuredValue: 234
- molecule: "O=C([O-])CN1CCN(CC(=O)[O-])CCN(CC(=O)NCC2CCC(C(=O)NC(Cc3ccc4ccccc4c3)C(=O)NCCCCC(NC(=O)NC(CCC(=O)O)C(=O)O)C(=O)O)CC2)CCN(CC(=O)[O-])CC1.[227Th+4] [Example 1-B-D-227Th]"
  measuredValue: 30

Continue with the next molecule.
Note Membrane bound in LNCaP fmol/10^6 cells 2 h for the molecule shown: Cc1cc2c(c(=O)n1CC(=O)O)[O][227Th]13[O]c4c(cc(C)n(CC(=O)O)c4=O)C(=O)NCCN(CCCN(CCNC2=O)CCNC(=O)c2cc(C)n(CC(=O)NCc4ccc(C(=O)N[C@@H](Cc5ccc6ccccc6n5)C(=O)NCCCC[C@H](NC(=O)N[C@@H](CCC(=O)O)C(=O)O)C(=O)O)nc4)c(=O)c2[O]1)CCNC(=O)c1cc(C)n(CC(=O)NCc2ccc(C(=O)N[C@@H](Cc4ccc5ccccc5n4)C(=O)NCCCC[C@H](NC(=O)N[C@@H](CCC(=O)O)C(=O)O)C(=O)O)nc2)c(=O)c1[O]3 [34-C dimer-227Th]
185

----------
# systemUnderTest: PSMA-expressing LNCaP cells (Homo sapiens, UniProt Q04609)
# Construct: PSMA-expressing LNCaP cells; endogenous in cells; host or cells: LNCaP
# Sequence (Q04609 whole entry): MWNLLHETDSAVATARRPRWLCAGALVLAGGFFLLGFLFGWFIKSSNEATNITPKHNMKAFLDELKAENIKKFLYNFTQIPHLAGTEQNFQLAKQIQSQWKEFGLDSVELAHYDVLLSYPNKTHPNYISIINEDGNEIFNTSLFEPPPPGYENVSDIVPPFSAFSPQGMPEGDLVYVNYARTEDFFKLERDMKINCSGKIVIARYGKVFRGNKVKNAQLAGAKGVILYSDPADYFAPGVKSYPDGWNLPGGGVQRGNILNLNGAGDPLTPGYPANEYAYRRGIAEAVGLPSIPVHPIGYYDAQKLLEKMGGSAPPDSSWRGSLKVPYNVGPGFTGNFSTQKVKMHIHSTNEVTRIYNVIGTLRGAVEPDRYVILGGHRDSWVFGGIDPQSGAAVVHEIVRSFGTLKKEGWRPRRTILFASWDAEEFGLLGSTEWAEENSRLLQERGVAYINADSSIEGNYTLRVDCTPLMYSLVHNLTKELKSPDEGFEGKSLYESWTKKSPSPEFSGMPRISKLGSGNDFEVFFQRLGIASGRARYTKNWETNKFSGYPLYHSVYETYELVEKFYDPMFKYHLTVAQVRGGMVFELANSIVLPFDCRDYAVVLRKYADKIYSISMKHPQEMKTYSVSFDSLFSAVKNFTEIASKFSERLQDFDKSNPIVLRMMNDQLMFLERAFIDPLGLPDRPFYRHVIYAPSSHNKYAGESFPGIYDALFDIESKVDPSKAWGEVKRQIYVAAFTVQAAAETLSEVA
# testDetails: Binding competition assay against 3H-PSMA-617 on LNCaP cells
# assayContext: LNCaP cells; 10 nM 3H-PSMA-617; competing non-radiolabeled compound 100 nM; 2 h at 37° C.; triplicates
Values of remaining activity at 0.1 µM strictly less than 60% map to Met, and values of at least 60% map to Not met.

For orientation, consider the following solved cases.
- compound: "NC1CC2(C1)CC(C(=O)N[C@@H](Cc1ccc3ccccc3c1)C(=O)NCCCC[C@H](NC(=O)N[C@@H](CCC(=O)O)C(=O)O)C(=O)O)C2 (stereo partly shown)"
  systemUnderTest: "PSMA-expressing LNCaP cells (Homo sapiens, UniProt Q04609)"
  class: "Met"
- compound: "O=C(O)CC[C@H](NC(=O)N[C@@H](CCCCNC(=O)[C@H](Cc1ccc2ccccc2c1)NC(=O)NCC1CCNCC1)C(=O)O)C(=O)O"
  systemUnderTest: "PSMA-expressing LNCaP cells (Homo sapiens, UniProt Q04609)"
  class: "Not met"

Consider CNc1cc2ccccc2cc1C[C@@H](NC(=O)[C@H]1CC[C@H](CNC(=O)CN2CCN(CC(=O)O)CCN(CC(=O)O)CCN(CC(=O)O)CC2)CC1)C(=O)NCCCC[C@H](NC(=O)N[C@@H](CCC(=O)O)C(=O)O)C(=O)O . Does its remaining activity at 0.1 µM lie strictly below 60%?
Met

Consider CNc1cc(C[C@@H](NC(=O)[C@H]2CC[C@H](CNC(=O)CN3CCN(CC(=O)O)CCN(CC(=O)O)CCN(CC(=O)O)CC3)CC2)C(=O)NCCCC[C@H](NC(=O)N[C@@H](CCC(=O)O)C(=O)O)C(=O)O)cc2ccccc12 . Does its remaining activity at 0.1 µM lie strictly below 60%?
Met

Consider O=C(O)CC[C@H](NC(=O)N[C@@H](CCCCNC(=O)[C@@H](Cc1ccc2ccncc2c1)NC(=O)[C@H]1CC[C@H](CNC(=O)CN2CCN(CC(=O)O)CCN(CC(=O)O)CCN(CC(=O)O)CC2)CC1)C(=O)O)C(=O)O . Does its remaining activity at 0.1 µM lie strictly below 60%?
Met

Consider NC[C@H]1CC[C@H](C(=O)N[C@@H](Cc2ccc3ccccc3c2Br)C(=O)NCCCC[C@H](NC(=O)N[C@@H](CCC(=O)O)C(=O)O)C(=O)O)CC1 . Does its remaining activity at 0.1 µM lie strictly below 60%?
Not met

Consider COc1ccc(CC(NC(=O)[C@H]2CC[C@H](CN)CC2)C(=O)NCCCC[C@H](NC(=O)N[C@@H](CCC(=O)O)C(=O)O)C(=O)O)cc1OC (stereo partly shown) . Does its remaining activity at 0.1 µM lie strictly below 60%?
Not met

Consider NC[C@H]1CC[C@H](C(=O)N[C@H](Cc2ccc3ccncc3c2)C(=O)NCCCC[C@H](NC(=O)N[C@@H](CCC(=O)O)C(=O)O)C(=O)O)CC1 . Does its remaining activity at 0.1 µM lie strictly below 60%?
Not met

----------
Provide the recorded Th-227 in large intestine for the entries that follow.
# testDetails: Biodistribution study in LNCaP tumor-bearing mice (Th227 counted in organs)
# Assay type: in vivo, SCID mice
# assayContext: 24 h; 1500 kBq/kg
# output: number + unit

List reported Th-227 in large intestine for each of these molecules:
1. O=C([O-])CN1CCN(CC(=O)[O-])CCN(CC(=O)NCC2CCC(C(=O)NC(Cc3ccc4ccccc4c3)C(=O)NCCCCC(NC(=O)NC(CCC(=O)O)C(=O)O)C(=O)O)CC2)CCN(CC(=O)[O-])CC1.[227Th+4] (stereo not shown) [Example 1-B-227Th]
2. O=C([O-])CN1CCN(CC(=O)[O-])CCN(CC(=O)NCC2CCC(C(=O)NC(Cc3ccc4ccccc4c3)C(=O)NCCCCC(NC(=O)NC(CCC(=O)O)C(=O)O)C(=O)O)CC2)CCN(CC(=O)[O-])CC1.[227Th+4] [Example 1-B-D-227Th]
3. O=C([O-])CN1CCN(CC(=O)[O-])CCN(CC(=O)NCc2ccc(C(=O)N[C@@H](Cc3ccc4ccccc4n3)C(=O)NCCCC[C@H](NC(=O)N[C@@H](CCC(=O)O)C(=O)O)C(=O)O)nc2)CCN(CC(=O)[O-])CC1.[227Th+4] [Example 34-B-227Th]
4. Cc1cc(C(=O)NCCN(CCCN(CCNC(=O)c2cc(C)n(CC(=O)O)c(=O)c2[O-])CCNC(=O)c2cc(C)n(CC(=O)NCC3CCC(C(=O)NC(Cc4cnc5ccccc5c4)C(=O)NCCCCC(NC(=O)NC(CCC(=O)O)C(=O)O)C(=O)O)CC3)c(=O)c2[O-])CCNC(=O)c2cc(C)n(CC(=O)NCC3CCC(C(=O)NC(Cc4cnc5ccccc5c4)C(=O)NCCCCC(NC(=O)NC(CCC(=O)O)C(=O)O)C(=O)O)CC3)c(=O)c2[O-])c([O-])c(=O)n1CC(=O)O.[227Th+4] (stereo not shown) [Example 22-C dimer-227Th]

1. 0.12% ID Th-227/g organ
2. 0.07% ID Th-227/g organ
3. 0.10% ID Th-227/g organ
4. 0.21% ID Th-227/g organ
